test system: MDA-N; assay: NCI tumour cell line growth inhibition, 48 h
RECORDED METRIC: TGI

[[record]]
compound = "O=C1CCCCCC1CC(Sc1ccccc1)Sc1ccccc1 (stereo not given)"
observed_result = "> 100 µM"

[[record]]
compound = "CC(C)(CC#N)c1cc(CC(C)(C)c2cc(CC(C)(C)c3cc(C(C)(C)C4(C)OCCO4)no3)no2)no1"
observed_result = "> 100 µM"

[[record]]
compound = "Cc1ccc(CC(Cc2ccc(C)cc2C(=O)O)C(=O)O)cc1 (stereo not given)"
observed_result = "> 100 µM"

[[record]]
compound = "COc1cc2c(c(OC)c1OC)C(=O)[C@H](Br)[C@H]2NC(=O)NCCCl"
observed_result = "> 100 µM"

[[record]]
compound = "Cc1cnoc1NS(=O)(=O)c1ccc(Nc2nnc(/C=C/c3c(O)ccc4ccccc34)c(=O)n2N)cc1"
observed_result = "82.2 µM"

